biological target: Opioid receptors; mu/kappa/delta (Homo sapiens, UniProt P41145+P41143+P35372); assay: Tested for the binding affinity against the opioid receptor in guinea pig brain using [3H]bremazocine; set-up: species or system Cavia porcellus; details: target entry is the homologue from another species
Exercise: state measured IC50 for each of the molecules provided.
Please give a number only; it is taken to be in nM.

[Q] Consider the molecule shown here: Oc1ccc2c3c1OC1[C@@H](OCc4c5ccccc5cc5ccccc45)CCC4(O)C(C2)N(CC2CC2)CCC314 (stereo partly drawn) What is its recorded IC50?
[A] 45

[Q] Consider the molecule shown here: Oc1ccc2c3c1OC1[C@H](OCc4ccccc4)CCC4(O)C(C2)N(CC2CC2)CCC314 (stereo partly drawn) What is its recorded IC50?
[A] 3.4

[Q] Consider the molecule shown here: Oc1ccc2c3c1OC1[C@@H](OCc4cccc5ccccc45)CCC4(O)C(C2)N(CC2CC2)CCC314 (stereo partly drawn) What is its recorded IC50?
[A] 7.3

[Q] Consider the molecule shown here: Oc1ccc2c3c1OC1[C@H](OCc4cccc5ccccc45)CCC4(O)C(C2)N(CC2CC2)CCC314 (stereo partly drawn) What is its recorded IC50?
[A] 11

[Q] Consider the molecule shown here: Oc1ccc2c3c1OC1[C@H](OCc4c5ccccc5cc5ccccc45)CCC4(O)C(C2)N(CC2CC2)CCC314 (stereo partly drawn) What is its recorded IC50?
[A] 71

[Q] Consider the molecule shown here: O=C(COC1CCC2(O)C3Cc4ccc(O)c5c4C2(CCN3CC2CC2)C1O5)C1[C@H]2C[C@@H]3C[C@@H](C[C@H]1C3)C2 (stereo partly drawn) What is its recorded IC50?
[A] 13

[Q] Consider the molecule shown here: Oc1ccc2c3c1OC1[C@@H](OCc4ccc(-c5ccccc5)cc4)CCC4(O)C(C2)N(CC2CC2)CCC314 (stereo partly drawn) What is its recorded IC50?
[A] 28

[Q] Consider the molecule shown here: Oc1ccc2c3c1OC1[C@H](OCc4ccc5ccccc5c4)CCC4(O)C(C2)N(CC2CC2)CCC314 (stereo partly drawn) What is its recorded IC50?
[A] 5
